target.or.test.system: Plasmine (human plasma) (Homo sapiens)
Construct: purchased Sigma-Aldrich; host or cells: human plasma
Sequence (P00747 581-810 limits assumed): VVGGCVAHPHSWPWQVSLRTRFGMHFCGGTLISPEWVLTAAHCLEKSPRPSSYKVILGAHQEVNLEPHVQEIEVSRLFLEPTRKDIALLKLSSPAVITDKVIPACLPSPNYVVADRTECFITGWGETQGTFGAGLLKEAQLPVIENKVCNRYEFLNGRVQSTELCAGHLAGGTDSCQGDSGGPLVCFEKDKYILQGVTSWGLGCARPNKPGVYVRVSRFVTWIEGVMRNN
Sequence (P00747 98-580 partner limits assumed): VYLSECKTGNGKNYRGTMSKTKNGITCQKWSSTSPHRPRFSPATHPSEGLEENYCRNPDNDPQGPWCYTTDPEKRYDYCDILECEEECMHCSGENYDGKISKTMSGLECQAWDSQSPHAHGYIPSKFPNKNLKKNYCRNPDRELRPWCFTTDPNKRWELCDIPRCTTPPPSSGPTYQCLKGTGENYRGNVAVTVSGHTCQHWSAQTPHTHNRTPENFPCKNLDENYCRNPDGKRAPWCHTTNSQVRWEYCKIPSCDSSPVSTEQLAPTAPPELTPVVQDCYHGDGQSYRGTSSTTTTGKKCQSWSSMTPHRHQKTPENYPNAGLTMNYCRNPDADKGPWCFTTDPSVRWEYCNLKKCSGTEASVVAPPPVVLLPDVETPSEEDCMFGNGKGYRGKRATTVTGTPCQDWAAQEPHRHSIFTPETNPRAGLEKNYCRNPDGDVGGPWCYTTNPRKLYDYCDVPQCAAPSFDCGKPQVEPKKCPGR
assay.procedure: Plasmin inhibition, chromogenic substrate Biophen CS-21(66)
Assay type: biochemical
pIC50: −log10 of the molar value.
For each of the compounds below, state its pIC50.

Please give pIC50, item by item, for the list that follows.
1. CCCCCCOC(=O)NC(c1ccc(NC(=N)N)cc1)P(=O)(Oc1ccccc1)Oc1ccccc1 (centres unmarked)
2. N=C(N)Nc1ccc(C(NC(=O)OCCCC(F)(F)F)P(=O)(Oc2ccccc2)Oc2ccccc2)cc1 (centres unmarked)
3. N=C(N)Nc1ccc(C(NC(=O)OCc2c(F)c(F)c(F)c(F)c2F)P(=O)(Oc2ccccc2)Oc2ccccc2)cc1 (centres unmarked)
4. COCCOC(=O)NC(c1ccc(NC(=N)N)cc1)P(=O)(Oc1ccccc1)Oc1ccccc1 (centres unmarked) [Compound 29, 2,2,2-trifluoroacetate]

-- reply
5.00 to 5.60
3.60 to 5.00
3.60 to 5.00
3.60 to 5.00

Please give pIC50, item by item, for the list that follows.
1. N=C(N)Nc1ccc(C(NC(=O)OCCOCCOCc2cn(CCOCCOCCOCCNC(=O)CN3CCN(CC(=O)O)CCN(CC(=O)O)CCN(CC(=O)O)CC3)nn2)P(=O)(Oc2ccccc2)Oc2ccccc2)cc1 (centres unmarked)
2. COCCOCCOCCOC(=O)NC(c1ccc(NC(=N)N)cc1)P(=O)(Oc1ccccc1)Oc1ccccc1 (centres unmarked)
3. N=C(N)Nc1ccc(C(NC(=O)OCc2ccccc2)P(=O)(Oc2ccccc2)Oc2ccccc2)cc1 (centres unmarked) [Compound 5a, 2,2,2-trifluoroacetate, reference compound]
4. N=C(N)Nc1ccc(CC(NC(=O)OCc2ccccc2)P(=O)(Oc2ccccc2)Oc2ccccc2)cc1 (centres unmarked) [UPA1, reference compound]
5. CCCCCC(=O)NCCOC(=O)NC(c1ccc(NC(=N)N)cc1)P(=O)(Oc1ccccc1)Oc1ccccc1 (centres unmarked)

-- reply
3.60 to 5.00
3.60 to 5.00
5.00 to 5.60
5.00 to 5.60
< 3.60

Please give pIC50, item by item, for the list that follows.
1. CSCCOC(=O)NC(c1ccc(NC(=N)N)cc1)P(=O)(Oc1ccccc1)Oc1ccccc1 (centres unmarked)
2. COCCOCCOC(=O)NC(c1ccc(NC(=N)N)cc1)P(=O)(Oc1ccc(NC(C)=O)cc1)Oc1ccc(NC(C)=O)cc1 (centres unmarked)

-- reply
1. 3.60 to 5.00
2. 3.60 to 5.00
